- run_description: Hygroscopicity study of crystal forms (dynamic vapour sorption, 25° C.)
- Format: physicochemical
- condition_summary: 20% RH-80% RH
quantity_kind: Hygroscopic weight change 20% RH-80% RH (%)

Please review the entries below; each comes with its answer.
- molecule: "N#Cc1ccc(N2CCC(Sc3ccc(COc4cccc5c4CN([C@H]4CCC(=O)NC4=O)C5=O)cn3)CC2)c(F)c1 [Crystal form E]"
  unit_spec: "%"
  Hygroscopic weight change 20% RH-80% RH: 0.84
- molecule: "N#Cc1ccc(N2CCC(Sc3ccc(COc4cccc5c4CN([C@H]4CCC(=O)NC4=O)C5=O)cn3)CC2)c(F)c1 [Crystal form U]"
  unit_spec: "%"
  Hygroscopic weight change 20% RH-80% RH: 1.03

1. N#Cc1ccc(N2CCC(Sc3ccc(COc4cccc5c4CN([C@H]4CCC(=O)NC4=O)C5=O)cn3)CC2)c(F)c1 [Crystal form D]
2. N#Cc1ccc(N2CCC(Sc3ccc(COc4cccc5c4CN([C@H]4CCC(=O)NC4=O)C5=O)cn3)CC2)c(F)c1 [Crystal form Q]
Lab note: record which item had the higher Hygroscopic weight change 20% RH-80% RH, 1 or 2 . Choose, then provide that item's label.
1
